# conditions: in n-pentanol, 312.45 K
measurement-type: solubility (mole fraction)
Numbers only.

Any idea what solubility (mole fraction) was measured for C[C@@H]1CC[C@@]2(OC1)O[C@H]1C[C@H]3[C@@H]4CC=C5C[C@@H](O)CC[C@]5(C)[C@H]4CC[C@]3(C)[C@H]1[C@@H]2C ?
0.00838

###

# conditions: in isooctanol, 327.45 K
measurement-type: solubility (mole fraction)
Numbers only.

Could you tell me which solubility (mole fraction) is on file for C[C@@H]1CC[C@@]2(OC1)O[C@H]1C[C@H]3[C@@H]4CC=C5C[C@@H](O)CC[C@]5(C)[C@H]4CC[C@]3(C)[C@H]1[C@@H]2C ?
0.0192
